Quick list: normalized growth per entry.
assay: chemical genetic growth profiling, strain panel (AID 1159580);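 further: tested at 20 µM; growth read once vehicle control cultures reached saturation at 30 °C; 1 = growth at the plate median or of vehicle wells; lower values mean less growth of the strain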; conditions: S. cerevisiae deletion strains, growth OD, locus YDR334W, strain swr1, active compounds read low
Screen size: about 5,500 compounds; about 2,000 (36%) were called active. About 18% were inconclusive and are not listed. Some of the results follow.
Give the value as a plain number.

Some solved entries appear below for comparison.
NS(=O)(=O)c1cc(C2(O)NC(=O)c3ccccc32)ccc1Cl (stereo unspecified) ... 1.01
C[C@]12CCC3c4ccc(O)cc4CCC3C1C[C@@H](O)[C@@H]2O (stereo partly specified) ... 1.02
O=c1c(O)c(-c2ccc(O)c(O)c2)oc2cc(O)cc(O)c12 ... 0.855
C[C@]12CCC3c4ccc(OS(=O)(=O)O)cc4CCC3C1CC[C@H]2O (stereo partly specified) ... 0.968
CC(=O)OCC1=C(C(=O)O)N2C(=O)[C@@H](NC(=O)Cc3cccs3)[C@H]2SC1 ... 0.986

[ask] # input compound: C[C@]12C=CC(=O)C=C1CCC1C2[C@@H](O)C[C@@]2(C)C1CC[C@]2(O)C(=O)COP(=O)(O)O (stereo partly specified) ; wanted: its normalized growth
[reply] 1.01

[ask] Could you do the same for O=C1[O][Bi][O]c2ccccc21 , please?
[reply] 1.05

[ask] Please answer likewise for O=c1c(O)c(-c2ccc(O)cc2O)oc2cc(O)cc(O)c12
[reply] 0.956

[ask] Next compound up: O=c1cc(-c2ccc(O)cc2)oc2cc(O[C@@H]3O[C@H](CO)[C@@H](O)[C@H](O)[C@H]3O)cc(O)c12
[reply] 1.01

[ask] Similarly, CC(C)(C)NCC(O)c1cc(Cl)c(N)c(Cl)c1 (stereo unspecified) ?
[reply] 1

[ask] Next entry: O=C(O)C1=C[C@@H](O)[C@@H](O)[C@H](O)C1
[reply] 0.966
